Provide the reported Max ΔF/F0 of each item.
# tested target: human TAS1R2-WT/TAS1R3-G367C (Homo sapiens, UniProt Q7RTX0+Q8TE23, G367C)
# Construct: expressed in transfected cells; host or cells: HEK293T stably expressing Gα16gust44
# Sequence (Q8TE23 20-839): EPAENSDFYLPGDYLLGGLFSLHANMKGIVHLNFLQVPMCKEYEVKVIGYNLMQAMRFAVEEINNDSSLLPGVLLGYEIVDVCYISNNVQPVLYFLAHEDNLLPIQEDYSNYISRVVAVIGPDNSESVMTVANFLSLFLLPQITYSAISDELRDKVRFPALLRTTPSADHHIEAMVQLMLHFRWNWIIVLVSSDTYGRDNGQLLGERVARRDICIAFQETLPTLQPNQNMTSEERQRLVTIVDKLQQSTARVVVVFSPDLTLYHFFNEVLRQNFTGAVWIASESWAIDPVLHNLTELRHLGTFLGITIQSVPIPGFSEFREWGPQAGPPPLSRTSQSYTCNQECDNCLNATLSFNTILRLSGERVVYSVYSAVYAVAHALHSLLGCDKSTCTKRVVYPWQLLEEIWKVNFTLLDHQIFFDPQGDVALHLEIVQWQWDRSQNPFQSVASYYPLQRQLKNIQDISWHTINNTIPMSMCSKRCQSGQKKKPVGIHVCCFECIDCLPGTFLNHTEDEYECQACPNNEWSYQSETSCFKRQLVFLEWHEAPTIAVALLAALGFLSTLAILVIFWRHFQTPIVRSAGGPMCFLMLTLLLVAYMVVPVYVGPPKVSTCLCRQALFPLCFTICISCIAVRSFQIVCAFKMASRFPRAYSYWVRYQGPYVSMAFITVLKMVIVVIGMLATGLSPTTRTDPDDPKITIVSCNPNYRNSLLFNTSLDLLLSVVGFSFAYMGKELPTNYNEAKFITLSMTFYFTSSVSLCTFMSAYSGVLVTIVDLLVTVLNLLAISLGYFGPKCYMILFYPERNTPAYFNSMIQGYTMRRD
# Sequence (Q7RTX0 21-852 G367C): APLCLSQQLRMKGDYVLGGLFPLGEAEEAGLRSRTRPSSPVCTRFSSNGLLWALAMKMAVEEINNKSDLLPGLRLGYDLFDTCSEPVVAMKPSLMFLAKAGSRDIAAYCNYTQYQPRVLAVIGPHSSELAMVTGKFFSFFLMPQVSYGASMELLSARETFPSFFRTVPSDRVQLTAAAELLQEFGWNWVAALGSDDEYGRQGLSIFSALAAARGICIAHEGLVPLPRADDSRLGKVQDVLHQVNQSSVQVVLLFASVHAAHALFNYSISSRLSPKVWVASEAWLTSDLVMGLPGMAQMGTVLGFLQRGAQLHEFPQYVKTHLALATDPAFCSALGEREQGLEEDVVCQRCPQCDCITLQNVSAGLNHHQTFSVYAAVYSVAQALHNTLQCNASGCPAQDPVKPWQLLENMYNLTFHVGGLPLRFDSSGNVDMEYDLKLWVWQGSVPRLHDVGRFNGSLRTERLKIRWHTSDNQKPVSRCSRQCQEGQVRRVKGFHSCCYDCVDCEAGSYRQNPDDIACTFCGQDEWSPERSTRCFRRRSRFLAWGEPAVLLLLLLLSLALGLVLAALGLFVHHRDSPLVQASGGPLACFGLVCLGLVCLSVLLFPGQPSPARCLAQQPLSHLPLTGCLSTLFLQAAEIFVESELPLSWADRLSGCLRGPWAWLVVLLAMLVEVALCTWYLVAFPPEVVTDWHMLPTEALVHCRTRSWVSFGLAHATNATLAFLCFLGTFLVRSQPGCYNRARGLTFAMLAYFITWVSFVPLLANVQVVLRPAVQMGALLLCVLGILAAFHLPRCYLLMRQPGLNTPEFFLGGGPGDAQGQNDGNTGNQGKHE
# assay notes: Calcium mobilisation assay, TAS1R2-WT with TAS1R3 variant G367C
# Type: cell-based
# condition info: maximal signal amplitude
Answer using only a numeral; do not append any unit.

Exam item: // Max ΔF/F0 lookup, key: C=C(C)[C@@H]1CC=C(/C=N/O)CC1
Marked response: 1.49

Exam item: Quick check: Max ΔF/F0 of COC(=O)[C@H](Cc1ccccc1)NC(=O)[C@H](CC(=O)O)NCCC(C)(C)C ?
Marked response: 0.31

Exam item: Could you tell me which Max ΔF/F0 is on file for C=C1C[C@@]23CC[C@H]4[C@@](C)(CCC[C@@]4(C)C(=O)O[C@@H]4O[C@H](CO)[C@@H](O)[C@H](O[C@@H]5O[C@H](CO)[C@@H](O)[C@H](O)[C@H]5O)[C@H]4O[C@@H]4O[C@H](CO)[C@@H](O)[C@H](O)[C@H]4O)[C@@H]2CC[C@]1(O[C@@H]1O[C@H](CO)[C@@H](O)[C@H](O[C@@H]2O[C@H](CO)[C@@H](O)[C@H](O)[C@H]2O)[C@H]1O[C@@H]1O[C@H](CO)[C@@H](O)[C@H](O)[C@H]1O)C3 [Rebaudioside M, rebaudioside M] ?
Marked response: 0.35
